target: SARS coronavirus 3C-like protease (3CLpro); assay: SARS 3CLpro protease inhibitor potency, late-stage follow-up, biochemical, fluorescence, dose response, set 4 (AID 588786); conditions: recombinant 3CLpro, fluorogenic peptide cleavage
Calls of active or inactive are those of the source. How the calls were made is not given here.
measureName: IC50

• CC(C)(C)NC(=O)C(c1cccnc1)N(C(=O)c1ccco1)c1ccc(I)cc1 (stereo not given) = inactive
• CC(C)(C)NC(=O)C(c1cccnc1)N(C(=O)c1ccco1)c1ccc(-c2cccc(F)c2F)cc1 (stereo not given) = 3.2 µM
• COc1cccc(Oc2ccc(N(C(=O)c3ccco3)C(C(=O)NC(C)(C)C)c3cccnc3)cc2)c1 (stereo not given) = inactive
• CC(C)(C)NC(=O)C(c1cccnc1)N(C(=O)c1ccco1)c1ccc(OCc2ccccc2)cc1 (stereo not given) = inactive
• Cc1noc(C)c1-c1ccc(N(C(=O)c2ccco2)C(C(=O)NC(C)(C)C)c2cccnc2)cc1 (stereo not given) = inactive

---

target: SARS coronavirus 3C-like protease (3CLpro); experiment: SARS 3CLpro protease inhibitor potency, late-stage follow-up, biochemical, fluorescence, dose response, set 4 (AID 588786); details: recombinant 3CLpro, fluorogenic peptide cleavage
Calls of active or inactive are those of the source. The rule behind the calls is not given here.
measureName: IC50

- CC(C)(C)NC(=O)C(c1cccnc1)N(C(=O)c1ccco1)c1ccc(-c2cccnc2)cc1 (stereo not given): inactive
- CC(C)(C)NC(=O)C(c1cccnc1)N(C(=O)c1ccco1)c1ccc(-c2cncnc2)cc1 (stereo not given): 4.5 µM
- CC(C)(C)NC(=O)C(c1cccnc1)N(C(=O)c1ccco1)c1ccc(-c2ccccc2)cc1 (stereo not given): 2.3 µM
- CC(C)(C)NC(=O)C(c1cccnc1)N(C(=O)c1ccco1)c1ccc(-c2cccn2C(=O)OC(C)(C)C)cc1 (stereo not given): inactive
- CC(C)(C)c1ccc(N(Cc2cccnc2)C(=O)c2cnc[nH]2)cc1: inactive
